- System: TK-10 renal
- PROTOCOL_DESCRIPTION: NCI tumour cell line growth inhibition, 48 h
PROPERTY_NAME: TGI

Consider the following illustrative entries.
CC(C)[C@@H]1CC[C@@H](C)C[C@H]1OC(=O)c1c2n(c3ccccc13)C[C@H]1OC(C)(C)O[C@@H]21 ... 60.7 µM
CCOC(=O)[C@@H](C)C[C@H](Cc1ccccc1)NC(=O)c1csc([C@@H](C[C@H](C(C)C)N(C)C(=O)[C@@H](NC(=O)[C@H]2CCCCN2C)C(C)(C)CC)OC(C)=O)n1 ... > 16.7 µM
O=C(Cc1ccccc1)NN1C(=O)C(Cl)C1c1ccccc1Cl (stereo not given) ... > 100 µM
O=C(CS(=O)(=O)c1nc2ccccc2nc1-c1ccccc1)Nc1ccc(F)cc1 ... > 100 µM

Query: Enter reported TGI observed with TK-10 renal for "C[N+](C)(CCCCCC[N+](C)(C)CCCN1C(=O)c2cccc3cccc(c23)C1=O)CCCN1C(=O)c2cccc3cccc(c23)C1=O"
Response: > 100 µM

Query: Follow-up entry: "Nc1ccc2n[se]nc2c1"
Response: > 100 µM

Query: Follow-up entry: "CN(C)CCNC(=O)c1cccc2c1nc(-c1ccc(F)cc1)c1ccccc12"
Response: 16.6 µM

Query: Follow-up entry: "C#Cc1cccc(Nc2ncnc3cc(NC(=O)CCl)ccc23)c1"
Response: 5.98 µM

Query: Follow-up entry: "COCC(C)(C)N=CN1Cc2cc3ccccc3nc2C1"
Response: > 100 µM

----------
- Test system: SNB-75 CNS
- PROTOCOL_DESCRIPTION: NCI tumour cell line growth inhibition, 48 h
PROPERTY_NAME: TGI

COc1nc(N=P(c2ccccc2)(c2ccccc2)c2ccccc2)cc(=O)n1C ... > 100 µM
O=C(Cc1ccccc1)NN1C(=O)C(Cl)C1c1ccccc1Cl (stereo not drawn) ... > 100 µM

As a next step, examine the compound that follows.
Query: Enter reported TGI observed with SNB-75 CNS for "O=C/C(=C1/C=Cc2cc([N+](=O)[O-])ccc2S1)c1ccccc1"
Response: > 100 µM

----------
- Test system: MCF7 breast
- PROTOCOL_DESCRIPTION: NCI tumour cell line growth inhibition, 48 h
Entries and their measured TGI follow.

Query: Entry C=CCCC1(O)C(O)C(CO)O[C@H](O[C@@]2(CO)OC(CO)C(O)C2O)C1O (stereo not given in full) has what TGI?
Response: > 100 µM

----------
- System: TK-10 renal
- PROTOCOL_DESCRIPTION: NCI tumour cell line growth inhibition, 48 h
PROPERTY_NAME: TGI

Consider the following illustrative entries.
CCOC1OC(CO)C(O)CC1n1ccc(=O)[nH]c1=O (stereo unspecified) ... > 100 µM
O=C(c1ccc(O)cc1O)C1C(c2ccc(O)cc2)OC(c2ccc(O)cc2)C1C(=O)c1ccc(O)cc1O (stereo unspecified) ... 49.8 µM
CC(C)N(C(=O)C12C3C4C1C1C2C3C41C#N)C(C)C (stereo unspecified) ... > 100 µM
C=C1C[C@H]2C=Nc3cc(OCCCOc4cc5c(cc4OC)C(=O)N4CC(=C)C[C@H]4C=N5)c(OC)cc3C(=O)N2C1 ... < 0.177 µM
CCOC(=O)c1c[nH]c(C(=O)OCC)c1-c1cccn1-c1ccccc1 ... > 100 µM

As a next step, examine the molecule that follows.
Query: Entry "COC(=O)CCSC(=O)Nc1ccc(N=Nc2ccccc2)cc1" has what TGI?
Response: > 100 µM

Origin of measurements: PubChem BioAssay (NCI)
